Origin of the recorded values: patent US11858919B2

Assay: Pharmacokinetics in male SD rats (cassette dosing, IV and PO), plasma level by LC/MS/MS
Format: in vivo
Details: male SD rat, IV 1 mg/kg, read-out: IV Clr.
measurement-kind: CL renal

Worked cases, CL renal given:
CN(C)CCNc1ccc2cc(C(=O)Nc3cc(-c4cccs4)ccc3N)ncc2c1 :: < 8.33 mL/min/kg
COCCN(C)c1ccc2cc(C(=O)Nc3cc(-c4cccs4)ccc3N)cnc2c1 :: < 1.67 mL/min/kg
CN(C)CCNc1ccc2cc(C(=O)Nc3cc(-c4cccs4)ccc3N)cnc2c1 :: < 8.33 mL/min/kg
CN1CCN(c2ccc3cc(C(=O)Nc4cc(-c5cccs5)ccc4N)cnc3c2)CC1 :: < 8.33 mL/min/kg
CN(C)CCN(C)c1ccc2cc(C(=O)Nc3cc(-c4cccs4)ccc3N)cnc2c1 :: < 3.33 mL/min/kg

# input for lookup
Q: What measured CL renal goes with "COCCNc1ccc2cc(C(=O)Nc3cc(-c4cccs4)ccc3N)cnc2c1" ?
Result: < 1.67 mL/min/kg

* * *

What follows is a collection of pIC50 values obtained with HDAC3 (Homo sapiens, UniProt O15379).
Sequence (O15379 whole entry): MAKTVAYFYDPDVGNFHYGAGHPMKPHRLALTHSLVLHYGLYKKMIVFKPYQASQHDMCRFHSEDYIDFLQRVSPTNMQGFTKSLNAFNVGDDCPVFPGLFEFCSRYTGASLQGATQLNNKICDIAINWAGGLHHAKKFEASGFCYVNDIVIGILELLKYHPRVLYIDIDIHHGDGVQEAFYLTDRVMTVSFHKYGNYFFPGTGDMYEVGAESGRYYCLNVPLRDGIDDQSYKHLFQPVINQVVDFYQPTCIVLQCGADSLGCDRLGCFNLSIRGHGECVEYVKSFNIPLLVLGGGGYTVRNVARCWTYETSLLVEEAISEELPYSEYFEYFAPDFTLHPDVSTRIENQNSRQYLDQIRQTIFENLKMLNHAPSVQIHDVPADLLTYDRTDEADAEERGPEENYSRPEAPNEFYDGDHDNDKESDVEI
Sequence (Q9Y618 395-489 partner limits assumed): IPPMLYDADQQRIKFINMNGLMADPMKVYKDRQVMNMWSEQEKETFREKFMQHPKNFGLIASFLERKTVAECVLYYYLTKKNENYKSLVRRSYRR
pIC50: −log10 of the molar value.

Worked cases, pIC50 given:
CN(C)CCNc1ccc2cc(C(=O)Nc3cc(-c4cccs4)ccc3N)cnc2c1 [Compound 025] :: 6.70 to 6.96
CN1C(=O)Cc2cc(C(=O)Nc3cc(-c4cccs4)ccc3N)ccc21 [Compound 001] :: 6.46 to 6.47
Nc1ccc(-c2cccs2)cc1NC(=O)c1ccc2c(c1)CC(=O)N2 [Compound 004] :: 6.27 to 6.28
CN1C(=O)Cc2cc(C(=O)Nc3cc(-c4ccco4)ccc3N)ccc21 [Compound 015] :: 6.19
CNCCCOc1ccc2cc(C(=O)Nc3cc(-c4cccs4)ccc3N)cnc2c1 [Compound 026] :: 7.02 to 7.07
COCCN(C)c1ccc2cc(C(=O)Nc3cc(-c4cccs4)ccc3N)cnc2c1 [Compound 030] :: 5.91 to 5.92
CN1C(=O)C(C)(C)c2cc(C(=O)Nc3cc(-c4cccs4)ccc3N)ccc21 [Compound 014] :: 5.47

# input for lookup
Q: Report pIC50 for Nc1ccc(-c2ccccc2)cc1NC(=O)c1ccc2ncn(CCN3CCOCC3)c2c1 [Compound 008] tested on HDAC3 (Homo sapiens, UniProt O15379).
Result: < 5.70

* * *

Experiment: Pharmacokinetics in male SD rats (cassette dosing, IV and PO), plasma level by LC/MS/MS
Format: in vivo
Details: male SD rat, IV 1 mg/kg, read-out: IV t1/2
measurement-kind: half-life

Worked cases, half-life given:
CN1CCN(c2ccc3cc(C(=O)Nc4cc(-c5cccs5)ccc4N)cnc3c2)CC1 [Compound 032] :: 0.5 to 2 h
CN(C)CCN(C)c1ccc2cc(C(=O)Nc3cc(-c4cccs4)ccc3N)cnc2c1 [Compound 031] :: 0.5 to 1 h
Nc1ccc(-c2cccs2)cc1NC(=O)c1ccc2c(c1)ncn2CCN1CCOCC1 [Compound 021] :: 1 to 5 h
CN1C(=O)Cc2cc(C(=O)Nc3cc(-c4ccccc4)ccc3N)ccc21 [Compound 012] :: 5 to 10 h
CN(C)CCNc1ccc2cc(C(=O)Nc3cc(-c4cccs4)ccc3N)ncc2c1 [Compound 024] :: 15 to 20 h
Nc1ccc(-c2cccs2)cc1NC(=O)c1ccc2c(c1)CC(=O)N2 [Compound 004] :: 15 to 20 h

Q: What measured half-life goes with Nc1ccc(-c2cccs2)cc1NC(=O)c1ccc2c(c1)CC(=O)N2CC1CC1 [Compound 011] ?
Result: 5 to 10 h

* * *

What follows is a collection of pIC50 values obtained with HDAC1 (Homo sapiens, UniProt Q13547).
Sequence (Q13547 whole entry): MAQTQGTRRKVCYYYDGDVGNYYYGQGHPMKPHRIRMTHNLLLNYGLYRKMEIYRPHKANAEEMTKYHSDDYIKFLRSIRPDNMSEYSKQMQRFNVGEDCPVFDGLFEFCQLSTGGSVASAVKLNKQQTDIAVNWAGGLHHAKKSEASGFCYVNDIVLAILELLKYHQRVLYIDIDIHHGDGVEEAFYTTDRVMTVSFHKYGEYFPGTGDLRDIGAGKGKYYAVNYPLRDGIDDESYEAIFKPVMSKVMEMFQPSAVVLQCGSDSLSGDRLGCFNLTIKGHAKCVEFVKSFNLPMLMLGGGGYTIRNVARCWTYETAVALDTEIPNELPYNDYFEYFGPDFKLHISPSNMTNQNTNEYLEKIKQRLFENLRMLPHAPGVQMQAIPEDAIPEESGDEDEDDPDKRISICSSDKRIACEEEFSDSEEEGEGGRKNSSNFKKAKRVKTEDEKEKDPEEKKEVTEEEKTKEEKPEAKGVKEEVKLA
pIC50: −log10 of the molar value.

Worked cases, pIC50 given:
Cn1cnc2cc(C(=O)Nc3cc(-c4cccs4)ccc3N)ccc21 :: 7.70 to 7.82
Nc1ccc(-c2ccccc2)cc1NC(=O)c1ccc2c(c1)CC(=O)N2CCN1CCOCC1 :: 7.46 to 7.60
CNCCCOc1ccc2cc(C(=O)Nc3cc(-c4cccs4)ccc3N)cnc2c1 :: 7.52 to 7.60

Q: Report pIC50 for "Cc1nc2ccc(C(=O)Nc3cc(-c4cccs4)ccc3N)cc2[nH]1" tested on HDAC1 (Homo sapiens, UniProt Q13547).
Result: 8.00 to 8.30

Q: Report pIC50 for "CN1CCN(c2ccc3cc(C(=O)Nc4cc(-c5cccs5)ccc4N)cnc3c2)CC1" tested on HDAC1 (Homo sapiens, UniProt Q13547).
Result: 8.00 to 8.30

Q: Report pIC50 for "Nc1ccc(-c2ccccc2)cc1NC(=O)c1ccc2c(c1)CC(=O)N2CC1CC1" tested on HDAC1 (Homo sapiens, UniProt Q13547).
Result: 7.60 to 7.70

Q: Report pIC50 for "Nc1ccc(-c2cccs2)cc1NC(=O)c1ccc2c(c1)CC(=O)N2" tested on HDAC1 (Homo sapiens, UniProt Q13547).
Result: 8.00 to 8.30

* * *

Assay: Pharmacokinetics in male SD rats (cassette dosing, IV and PO), plasma level by LC/MS/MS
Type: in vivo
Conditions: male SD rat, IV 1 mg/kg, read-out: IV AUC
In this section, each of the compounds is paired with its reported AUC.

Nc1ccc(-c2cccs2)cc1NC(=O)c1ccc2c(c1)CC(=O)N2CCN1CCOCC1 :: 1800 to 1900 ng·h/mL

Q: What measured AUC goes with "Nc1ccc(-c2cccs2)cc1NC(=O)c1ccc2c(c1)ncn2CCN1CCOCC1" ?
Result: 3700 to 3800 ng·h/mL

Q: What measured AUC goes with "CN(C)CCN(C)c1ccc2cc(C(=O)Nc3cc(-c4cccs4)ccc3N)cnc2c1" ?
Result: 1 to 5 ng·h/mL

Q: What measured AUC goes with "Nc1ccc(-c2cccs2)cc1NC(=O)c1ccc2[nH]c(C3CC3)nc2c1" ?
Result: 10800 ng·h/mL

* * *

Biological target: HDAC2 (Homo sapiens, UniProt Q92769)
Sequence (Q92769 whole entry): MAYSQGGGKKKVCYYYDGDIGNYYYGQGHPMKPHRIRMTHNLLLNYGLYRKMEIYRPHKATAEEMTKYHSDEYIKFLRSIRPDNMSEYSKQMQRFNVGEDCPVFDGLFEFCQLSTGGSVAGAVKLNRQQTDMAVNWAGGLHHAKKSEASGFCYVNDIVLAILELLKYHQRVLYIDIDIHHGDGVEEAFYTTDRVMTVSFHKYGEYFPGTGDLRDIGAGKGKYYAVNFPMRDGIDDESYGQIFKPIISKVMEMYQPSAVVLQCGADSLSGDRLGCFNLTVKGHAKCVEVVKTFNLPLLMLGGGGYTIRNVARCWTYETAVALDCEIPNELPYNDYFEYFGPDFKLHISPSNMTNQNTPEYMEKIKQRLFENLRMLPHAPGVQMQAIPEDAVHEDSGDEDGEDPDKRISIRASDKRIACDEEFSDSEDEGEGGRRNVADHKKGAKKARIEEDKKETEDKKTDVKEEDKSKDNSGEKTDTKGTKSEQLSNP
pIC50: −log10 of the molar value.
measurement-kind: pIC50

Nc1ccc(-c2cccs2)cc1NC(=O)c1ccc2[nH]c(C3CC3)nc2c1 [Compound 009] :: 7.35 to 7.40

Q: What measured pIC50 goes with Nc1ccc(-c2cccs2)cc1NC(=O)c1ccc2c(c1)CC(=O)N2CCN1CCOCC1 [Compound 003] ?
Result: 7.60 to 8.30

Q: What measured pIC50 goes with Nc1ccc(-c2ccccc2)cc1NC(=O)c1ccc2c(c1)CC(=O)N2CCN1CCOCC1 [Compound 013] ?
Result: 7.10 to 7.15

Q: What measured pIC50 goes with CN1C(=O)Cc2cc(C(=O)Nc3cc(-c4ccccc4)ccc3N)ccc21 [Compound 012] ?
Result: 7.52 to 7.70

Q: What measured pIC50 goes with Nc1ccc(-c2cccs2)cc1NC(=O)c1ccc2c(c1)CC(=O)N2CCCN1CCOCC1 [Compound 016] ?
Result: 7.82 to 8.30

Q: What measured pIC50 goes with CN1CCN(c2ccc3cc(C(=O)Nc4cc(-c5cccs5)ccc4N)cnc3c2)CC1 [Compound 032] ?
Result: 7.46 to 7.60

Q: What measured pIC50 goes with Nc1ccc(-c2ccccc2)cc1NC(=O)c1ccc2ncn(CCN3CCOCC3)c2c1 [Compound 008] ?
Result: < 5.70

Q: What measured pIC50 goes with Nc1ccc(-c2cccs2)cc1NC(=O)c1ccc2c(c1)CC(=O)N2CC1CC1 [Compound 011] ?
Result: 7.40 to 7.46

* * *

Test: Pharmacokinetics in male SD rats (cassette dosing, IV and PO), plasma level by LC/MS/MS
Type: in vivo
Conditions: male SD rat, PO 5 mg/kg oral gavage, read-out: PO AUC
measurement-kind: AUC (ng·h/mL)
# number only, unit ng·h/mL dropped from output

Worked cases, AUC given:
Nc1ccc(-c2cccs2)cc1NC(=O)c1ccc2c(c1)ncn2CCN1CCOCC1 :: 21400
CN1C(=O)Cc2cc(C(=O)Nc3cc(-c4cccs4)ccc3N)ccc21 :: 140000
Nc1ccc(-c2ccccc2)cc1NC(=O)c1ccc2c(c1)CC(=O)N2CC1CC1 :: 22400

# input for lookup
Q: What measured AUC goes with "Nc1ccc(-c2ccccc2)cc1NC(=O)c1ccc2c(c1)CC(=O)N2CCN1CCOCC1" ?
Result: 11800

* * *

Assay: Pharmacokinetics in male SD rats (cassette dosing, IV and PO), plasma level by LC/MS/MS
Format: in vivo
Details: male SD rat, PO 5 mg/kg oral gavage, read-out: PO t1/2
measurement-kind: half-life

Worked cases, half-life given:
Nc1ccc(-c2cccs2)cc1NC(=O)c1ccc2[nH]c(C3CC3)nc2c1 :: 10 to 15 h
Nc1ccc(-c2ccccc2)cc1NC(=O)c1ccc2c(c1)CC(=O)N2CCN1CCOCC1 :: 1 to 5 h
Nc1ccc(-c2ccccc2)cc1NC(=O)c1ccc2c(c1)CC(=O)N2CC1CC1 :: 5 to 10 h
Nc1ccc(-c2cccs2)cc1NC(=O)c1ccc2c(c1)CC(=O)N2CCN1CCOCC1 :: 5 to 10 h
Nc1ccc(-c2cccs2)cc1NC(=O)c1ccc2c(c1)CC(=O)N2 :: 10 to 15 h
Nc1ccc(-c2cccs2)cc1NC(=O)c1ccc2c(c1)CC(=O)N2CC1CC1 :: 5 to 10 h

Q: What measured half-life goes with "Nc1ccc(-c2cccs2)cc1NC(=O)c1ccc2[nH]cnc2c1" ?
Result: 5 to 10 h

Q: What measured half-life goes with "Nc1ccc(-c2cccs2)cc1NC(=O)c1ccc2c(c1)ncn2CCN1CCOCC1" ?
Result: 1 to 5 h

Q: What measured half-life goes with "CN1C(=O)Cc2cc(C(=O)Nc3cc(-c4ccccc4)ccc3N)ccc21" ?
Result: 15 to 20 h
